Every entry's value here was drawn from the Immune Epitope Database (IEDB).

TARGET_OF_ASSAY: HLA-A*02:02
PROTOCOL_DESCRIPTION: IEDB peptide-MHC binding, purified MHC/competitive/radioactivity; filed as Kd, often an IC50 or EC50 that approximates it; bounds were set here for any values at or beyond the usual limits of such assays
ASSAY_CONTEXT: source organism: Mammarenavirus machupoense
ASSAY_ENDPOINT: Kd

The measured Kd associated with LLDCIMYQS reads 1530 nM

* * *

TARGET_OF_ASSAY: HLA-B*08:01
PROTOCOL_DESCRIPTION: IEDB peptide-MHC binding, purified MHC/competitive/radioactivity; filed as Kd, often an IC50 or EC50 that approximates it; bounds were set here for any values at or beyond the usual limits of such assays
ASSAY_CONTEXT: source organism: Dengue virus 4 Philippines/H241/1956
Below, each of the sequences is paired with its reported Kd value.
Give the quantity in nM, number only.

[
  {
    "ORDERED_RESIDUES": "LKKNKAIKIL",
    "Kd (nM)": 11000
  },
  {
    "ORDERED_RESIDUES": "EQMAPHHKIL",
    "Kd (nM)": 59.7
  }
]

With those in mind, consider the next sequence.
Query IPYLGKREDL on HLA-B*08:01; Kd returned: 785

* * *

TARGET_OF_ASSAY: HLA-A*11:01
PROTOCOL_DESCRIPTION: IEDB peptide-MHC binding, purified MHC/direct/fluorescence; filed as Kd, often an IC50 or EC50 that approximates it; bounds were set here for any values at or beyond the usual limits of such assays
ASSAY_CONTEXT: source organism: Dengue virus 1 Singapore/S275/1990
pKd: −log10 of the molar value.
ASSAY_ENDPOINT: pKd

The measured pKd associated with ATYGWNLVK reads ≥ 9.00

* * *

TARGET_OF_ASSAY: HLA-B*57:01
PROTOCOL_DESCRIPTION: IEDB peptide-MHC binding, purified MHC/direct/fluorescence; filed as Kd, often an IC50 or EC50 that approximates it; bounds were set here for any values at or beyond the usual limits of such assays
ASSAY_CONTEXT: source organism: Rickettsia prowazekii
ASSAY_ENDPOINT: Kd

The measured Kd associated with STYGISEDL reads ≥ 20 µM

* * *

TARGET_OF_ASSAY: HLA-A*69:01
PROTOCOL_DESCRIPTION: IEDB peptide-MHC binding, purified MHC/direct/fluorescence; filed as Kd, often an IC50 or EC50 that approximates it; bounds were set here for any values at or beyond the usual limits of such assays
ASSAY_CONTEXT: source organism: Giardia lamblia ATCC 50803
ASSAY_ENDPOINT: Kd (µM)
Give the quantity in µM, number only.

The measured Kd associated with LLPYPIAGC reads 4.2

* * *

TARGET_OF_ASSAY: HLA-B*39:01
PROTOCOL_DESCRIPTION: IEDB peptide-MHC binding, purified MHC/competitive/fluorescence; filed as Kd, often an IC50 or EC50 that approximates it; bounds were set here for any values at or beyond the usual limits of such assays
ASSAY_CONTEXT: source organism: Rhizobium wenxiniae
pKd: −log10 of the molar value.
ASSAY_ENDPOINT: pKd

The measured pKd associated with FHLRSRFAF reads ≥ 9.00

* * *

TARGET_OF_ASSAY: HLA-A*29:02
PROTOCOL_DESCRIPTION: IEDB peptide-MHC binding, purified MHC/competitive/fluorescence; filed as Kd, often an IC50 or EC50 that approximates it; bounds were set here for any values at or beyond the usual limits of such assays
ASSAY_CONTEXT: source organism: Homo sapiens
ASSAY_ENDPOINT: Kd (nM)
Give the quantity in nM, number only.

The measured Kd associated with SVDGFRASY reads 1.3

* * *

TARGET_OF_ASSAY: HLA-B*07:02
PROTOCOL_DESCRIPTION: IEDB peptide-MHC binding, purified MHC/competitive/radioactivity; filed as Kd, often an IC50 or EC50 that approximates it; bounds were set here for any values at or beyond the usual limits of such assays
ASSAY_CONTEXT: source organism: Vaccinia virus WR
ASSAY_ENDPOINT: pKd
// returns pKd (minus log10 of molar concentration), number only

[
  {
    "ORDERED_RESIDUES": "RPKILSMINY",
    "TARGET_OF_ASSAY": "HLA-B*07:02",
    "pKd": 5.50
  }
]

The measured pKd associated with VPNITISSNA reads 5.38

* * *

TARGET_OF_ASSAY: HLA-A*03:01
PROTOCOL_DESCRIPTION: IEDB peptide-MHC binding, purified MHC/direct/fluorescence; filed as Kd, often an IC50 or EC50 that approximates it; bounds were set here for any values at or beyond the usual limits of such assays
ASSAY_CONTEXT: source organism: Pseudomonas aeruginosa
ASSAY_ENDPOINT: pKd
// returns pKd (minus log10 of molar concentration), number only

The measured pKd associated with YTFCRLNVK reads 6.67

* * *

TARGET_OF_ASSAY: HLA-A*02:01
PROTOCOL_DESCRIPTION: IEDB peptide-MHC binding, purified MHC/competitive/fluorescence; filed as Kd, often an IC50 or EC50 that approximates it; bounds were set here for any values at or beyond the usual limits of such assays
ASSAY_CONTEXT: source organism: Escherichia coli O139:H28 str. E24377A
ASSAY_ENDPOINT: Kd (nM)
Give the quantity in nM, number only.

The measured Kd associated with ALAWSLQML reads 3.4

* * *

Below, each of the sequences is paired with its reported Kd value.
TARGET_OF_ASSAY: HLA-B*40:02
PROTOCOL_DESCRIPTION: IEDB peptide-MHC binding, purified MHC/competitive/radioactivity; filed as Kd, often an IC50 or EC50 that approximates it; bounds were set here for any values at or beyond the usual limits of such assays
ASSAY_CONTEXT: source organism: Mammarenavirus whitewaterense
Give the quantity in nM, number only.

[
  {
    "ORDERED_RESIDUES": "REPETTVVL",
    "UNIT_DESCRIPTOR": "nM",
    "Kd": 92.7
  }
]

The measured Kd associated with SDSVCACGL reads 3880

* * *

TARGET_OF_ASSAY: HLA-A*02:12
PROTOCOL_DESCRIPTION: IEDB peptide-MHC binding, purified MHC/direct/fluorescence; filed as Kd, often an IC50 or EC50 that approximates it; bounds were set here for any values at or beyond the usual limits of such assays
ASSAY_CONTEXT: source organism: Geobacillus sp. WCH70
ASSAY_ENDPOINT: pKd
// returns pKd (minus log10 of molar concentration), number only

The measured pKd associated with GLPESTPSL reads 6.92

* * *

TARGET_OF_ASSAY: HLA-A*68:02
PROTOCOL_DESCRIPTION: IEDB peptide-MHC binding, purified MHC/competitive/radioactivity; filed as Kd, often an IC50 or EC50 that approximates it; bounds were set here for any values at or beyond the usual limits of such assays
ASSAY_CONTEXT: source organism: Dengue virus 2 Jamaica/1409/1983
Below, each of the sequences is paired with its reported pKd value.
// returns pKd (minus log10 of molar concentration), number only

[
  {
    "ORDERED_RESIDUES": "MSFRDLGRV",
    "pKd": 7.71
  },
  {
    "ORDERED_RESIDUES": "TLYAVATTFV",
    "pKd": 7.94
  }
]

With those in mind, consider the next sequence.
The measured pKd associated with CTILAAVSV reads 8.82

* * *

TARGET_OF_ASSAY: HLA-B*57:01
PROTOCOL_DESCRIPTION: IEDB peptide-MHC binding, purified MHC/competitive/fluorescence; filed as Kd, often an IC50 or EC50 that approximates it; bounds were set here for any values at or beyond the usual limits of such assays
ASSAY_CONTEXT: source organism: Lechiguanas virus
pKd: −log10 of the molar value.
ASSAY_ENDPOINT: pKd

The measured pKd associated with AMPKTIYEL reads ≤ 4.70

* * *

TARGET_OF_ASSAY: HLA-B*45:06
PROTOCOL_DESCRIPTION: IEDB peptide-MHC binding, purified MHC/competitive/fluorescence; filed as Kd, often an IC50 or EC50 that approximates it; bounds were set here for any values at or beyond the usual limits of such assays
ASSAY_CONTEXT: source organism: Choclo virus
pKd: −log10 of the molar value.
ASSAY_ENDPOINT: pKd

The measured pKd associated with LPSSSSYSY reads ≤ 5.30

* * *

TARGET_OF_ASSAY: HLA-A*31:01
PROTOCOL_DESCRIPTION: IEDB peptide-MHC binding, purified MHC/competitive/radioactivity; filed as Kd, often an IC50 or EC50 that approximates it; bounds were set here for any values at or beyond the usual limits of such assays
ASSAY_CONTEXT: source organism: Mammarenavirus brazilense
ASSAY_ENDPOINT: Kd (µM)
Give the quantity in µM, number only.

Query MVNHSTYYV on HLA-A*31:01; Kd returned: 0.0103

Query SVTLDFTKFH on HLA-A*31:01; Kd returned: 10.1
